# Test system: TTR
# test-name: TTR editing in primary cyno hepatocytes electroporated with Spy Cas9 protein and sgRNAs (Tables 14, 15)
# Format: cell-based, cynomolgus monkey
# condition-label: Table 14; primary cyno hepatocytes electroporated with Spy Cas9 protein (RNP) and sgRNAs
Strand notation (5' to 3'): a small letter for the sugar, then the base; units joined by * are phosphorothioate-linked, units joined directly phosphodiester-linked; [ ] holds rarer units or linkages, { } end groups; capitals alone tell only the bases. m = 2'-O-methyl; r = 2'-OH (RNA)
measured-metric: Avg % Insert

[in] Query: Avg % Insert; subject: G000486: TTR sgRNA modified sequence, Human, SEQ ID No. 93; guide sequence of CR003339 (nucleic acid) guide: mA*mC*mA*rCrArArArUrArCrCrArGrUrCrCrArGrCrArGrUrUrUrUrArGrAmGmCmUmAmGmAmAmAmUmAmGmCrArArGrUrUrArArArArUrArArGrGrCrUrArGrUrCrCrGrUrUrArUrCrAmAmCmUmUmGmAmAmAmAmAmGmUmGmGmCmAmCmCmGmAmGmUmCmGmGmUmGmCmU*mU*mU*mU
[out] 11.90%
